# credit: paper PMC2756588

# Target Or System: T1, Bzz1-1, P38822
# T1 sequence (P38822 478-572, looked up): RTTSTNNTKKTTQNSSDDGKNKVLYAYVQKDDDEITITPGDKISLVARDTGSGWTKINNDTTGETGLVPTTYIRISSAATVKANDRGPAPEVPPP
# Assay Summary: SPOT array
# Measurement Setup: median of control spots 4446
Metric: SPOT intensity

Study these solved cases before continuing.
>>> reported_measurement("HHNRRKPLEVYFKAT")
3
>>> reported_measurement("SKIRPTPRKPSRMAT")
6
>>> reported_measurement("APPPPPRRATPEKKP")
1

[a] KNRKNLPTIPIRLSG
[b] NHSRSLFSLPGNQQS
Lower value for measured SPOT intensity? Options: a , b Indicate your choice by writing its label.
a
(a: 0, b: 2)
